- ASSAY: Quantitative High-Throughput drug screen in 47 multiple myeloma cell lines against the NCATS MIPE library collection: H1112_PLB cell viability assay (AID 1918967; note: nearly all actives have a fitted effect of over 30% in size)
- STATED_CONDITIONS: H1112 myeloma cells viability, ATP luminescence, 48 h; series mostly up to 45.8 µM
Inconclusive results are not listed. Activity calls are given as the source filed them. Calls come from the whole dose curve; as a rule, active = well fitted cell-killing curve with a large enough effect; inconclusive = small, poorly fitted or top-dose-only effect, or effect the other way; inactive = no such curve, though single readings can be large or run the other way.
Pick one and only one: T (active), F (inactive)

Any idea what this test logged for `CCOC(=O)c1ccc(C#Cc2ccc3c(c2)C(C)(C)CCS3)nc1` ?
T

Give the logged outcome of this assay for the following compound: `CC(C)(C)NC(=O)[C@H]1CC[C@H]2[C@@H]3CC[C@H]4NC(=O)C=C[C@]4(C)[C@H]3CC[C@]12C`
T

What did the test return for `O=P(O)(O)C(O)(Cc1cccnc1)P(=O)(O)O` ?
F

Assay result, entry `CC(=O)Oc1ccccc1C(=O)Nc1ncc([N+](=O)[O-])s1` — outcome?
T

Recorded call for `C[C@@H]1C[C@H]2[C@@H]3CCC4=CC(=O)C=C[C@]4(C)[C@@]3(Cl)[C@@H](O)C[C@]2(C)[C@@]1(OC(=O)c1ccco1)C(=O)CCl` ?
T
